Source listed as patent US5846720A.

# Test system: G-CSF promoter
# assay-details: G-CSF promoter/luciferase reporter assay (high-throughput screen I), G21 cells
# protocol-conditions: transcriptional activators, Table 2; 6 h incubation
Rule: met for GCSF fold induction relative to solvent control not less than 0.8 fold, not met for anything less.

Solved entries (count: 8):
                                   molecule  label_value
0    Brc1ccc2c3c(cccc13)CC2 [Chemical 1573]          met
1  O=c1ccc2[n+]([O-])c3ccc(O)cc3oc-2c1 [Chemical 427]          met
2  O=c1c(O)c(-c2ccc(O)c(O)c2)oc2cc(O)ccc12 [Chemical 325]      not met
3  O=C(N[C@H](CO)[C@H](O)c1ccc([N+](=O)[O-])cc1)C(Cl)Cl [Chemical 2191]      not met
4      Nc1ccccc1SSc1ccccc1N [Chemical 1482]          met
5  O=C(O)c1ccc2c3c(ncnc13)-c1ccccc1C2=O [Chemical 378]          met
6               ClCCN1CCCCC1 [Chemical 254]          met
7     Nc1c2ccccc2nc2ccccc12 [Chemical 1904]          met

Input line: Could you tell me if the measured GCSF fold induction relative to solvent control of O=C1CCCCC1Cl (stereo not shown) [Chemical 2148] reaches 0.8 fold or more?
Output line: not met

Input line: Could you tell me if the measured GCSF fold induction relative to solvent control of Cc1ccc(N)c(S(=O)(=O)O)c1 [Chemical 1376] reaches 0.8 fold or more?
Output line: met

Input line: Could you tell me if the measured GCSF fold induction relative to solvent control of COc1ccc(CC(=O)O)cc1OC [Chemical 629] reaches 0.8 fold or more?
Output line: met

Input line: Could you tell me if the measured GCSF fold induction relative to solvent control of O=C(O)C1CCC1 [Chemical 1804] reaches 0.8 fold or more?
Output line: met

Input line: Could you tell me if the measured GCSF fold induction relative to solvent control of Nc1ccc(C=CC(=O)O)cc1 [Chemical 1234] reaches 0.8 fold or more?
Output line: met

Input line: Could you tell me if the measured GCSF fold induction relative to solvent control of Cc1ccc(C(=O)c2ccccc2N)cc1 [Chemical 1384] reaches 0.8 fold or more?
Output line: met

Input line: Could you tell me if the measured GCSF fold induction relative to solvent control of O=NN(O)c1ccccc1 [Chemical #1783, Cupferron] reaches 0.8 fold or more?
Output line: met

Input line: Could you tell me if the measured GCSF fold induction relative to solvent control of Nc1nc(-c2ccccc2)cs1 [Chemical 1499] reaches 0.8 fold or more?
Output line: not met

Input line: Could you tell me if the measured GCSF fold induction relative to solvent control of O=c1[nH]c(=O)n([C@H]2C[C@H](O)[C@@H](CO)O2)cc1Br [Chemical #543, 5-Bromo-2'-deoxyuridine] reaches 0.8 fold or more?
Output line: met

Input line: Could you tell me if the measured GCSF fold induction relative to solvent control of OCC1CC2C3CC(CO)C(C3)C2C1 (stereo not shown) [Chemical 1678] reaches 0.8 fold or more?
Output line: not met

Input line: Could you tell me if the measured GCSF fold induction relative to solvent control of Nc1nc(N)nc(N)n1 [Chemical 364] reaches 0.8 fold or more?
Output line: met

Input line: Could you tell me if the measured GCSF fold induction relative to solvent control of CCOC(=O)c1c[nH]c(=S)[nH]c1=O [Chemical 1740] reaches 0.8 fold or more?
Output line: not met

Input line: Could you tell me if the measured GCSF fold induction relative to solvent control of CN(C)c1ccc2cc3ccc(N(C)C)cc3nc2c1 [Chemical 80] reaches 0.8 fold or more?
Output line: met

Input line: Could you tell me if the measured GCSF fold induction relative to solvent control of NC(=O)N1c2ccccc2CCc2ccccc21 [Chemical 299] reaches 0.8 fold or more?
Output line: not met
